The measurements presented in this section are drawn from patent US11161846B2.

targetUnderTest: human GluN1/GluN2B NMDA receptors (Homo sapiens, UniProt Q05586+Q13224)
Sequence (Q13224 27-1484, other chains not shown): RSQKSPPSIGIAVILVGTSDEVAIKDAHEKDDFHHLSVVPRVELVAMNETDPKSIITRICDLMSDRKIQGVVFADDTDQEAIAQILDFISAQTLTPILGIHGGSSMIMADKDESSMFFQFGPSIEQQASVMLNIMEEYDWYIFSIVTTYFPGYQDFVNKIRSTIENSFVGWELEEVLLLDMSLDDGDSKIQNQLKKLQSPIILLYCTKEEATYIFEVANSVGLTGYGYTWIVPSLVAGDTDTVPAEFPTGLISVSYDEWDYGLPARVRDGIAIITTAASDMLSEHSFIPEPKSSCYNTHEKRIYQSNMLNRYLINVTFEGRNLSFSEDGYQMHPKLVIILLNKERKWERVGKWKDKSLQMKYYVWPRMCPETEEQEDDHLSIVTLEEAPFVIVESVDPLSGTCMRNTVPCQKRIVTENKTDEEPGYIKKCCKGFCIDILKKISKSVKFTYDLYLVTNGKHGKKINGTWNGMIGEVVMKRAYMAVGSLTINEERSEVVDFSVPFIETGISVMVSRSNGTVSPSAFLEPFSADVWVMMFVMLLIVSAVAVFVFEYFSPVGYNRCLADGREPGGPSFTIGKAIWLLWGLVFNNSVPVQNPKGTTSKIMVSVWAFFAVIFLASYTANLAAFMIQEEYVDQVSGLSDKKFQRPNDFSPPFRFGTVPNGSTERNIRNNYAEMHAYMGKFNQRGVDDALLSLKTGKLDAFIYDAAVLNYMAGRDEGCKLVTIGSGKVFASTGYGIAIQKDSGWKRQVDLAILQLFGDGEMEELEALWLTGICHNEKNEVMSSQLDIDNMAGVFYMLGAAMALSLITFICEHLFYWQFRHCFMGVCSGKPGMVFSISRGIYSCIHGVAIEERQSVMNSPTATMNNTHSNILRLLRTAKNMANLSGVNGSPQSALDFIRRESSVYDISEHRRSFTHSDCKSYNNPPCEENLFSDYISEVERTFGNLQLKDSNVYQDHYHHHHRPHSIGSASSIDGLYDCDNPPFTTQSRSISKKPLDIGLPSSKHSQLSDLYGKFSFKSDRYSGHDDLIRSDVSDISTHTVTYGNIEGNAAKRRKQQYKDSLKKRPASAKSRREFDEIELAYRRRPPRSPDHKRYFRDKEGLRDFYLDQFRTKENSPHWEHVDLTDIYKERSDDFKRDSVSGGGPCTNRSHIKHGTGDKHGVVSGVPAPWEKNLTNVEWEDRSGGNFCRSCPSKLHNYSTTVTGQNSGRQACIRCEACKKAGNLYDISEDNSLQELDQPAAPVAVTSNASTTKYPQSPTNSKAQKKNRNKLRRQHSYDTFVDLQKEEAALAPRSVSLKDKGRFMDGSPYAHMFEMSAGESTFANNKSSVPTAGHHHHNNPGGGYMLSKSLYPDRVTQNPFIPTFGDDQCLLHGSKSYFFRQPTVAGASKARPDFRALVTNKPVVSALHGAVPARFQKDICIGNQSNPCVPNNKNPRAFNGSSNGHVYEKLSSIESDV
assayText: Calcium flux (FLIPR) assay on cloned human NR1/GluN2B ion channels expressed in mammalian cells, standard assay
experimentalConditions: glutamate ~EC40 and 10 μM glycine, stable cell line with Tet-On induced expression
Quick list: log10 of IC50 per entry.
quantity: log10 of IC50 (log10 of the value in nM)

- compound: "O=C1NCC(Cn2ncc3ncc(-c4ccc(F)c(C(F)F)c4)cc32)O1 (racemic) [Example 20]"
  log10 of IC50: 2.29
- compound: "CC(C)C(=O)Cn1ncc2ncc(-c3cccc(C(F)F)c3)cc21 [Example 47]"
  log10 of IC50: 1.36
- compound: "CC(C)C(Cn1ncc2ncc(-c3cccc(C(F)(F)F)c3)cc21)=NO (mixture of isomers) [Example 6]"
  log10 of IC50: 3.39
- compound: "ON=C(Cn1ncc2ncc(-c3cccc(C(F)(F)F)c3)cc21)C1CC1 (mixture of isomers) [Example 106]"
  log10 of IC50: 3.17
- compound: "O=C1O[C@@H](Cn2ncc3ncc(-c4ccc(F)c(C(F)F)c4)cc32)CN1C1CC1 [Example 136]"
  log10 of IC50: 3.00
- compound: "Fc1ccc(-c2cnc3cnn(CC4CCCO4)c3c2)cc1OC(F)F (racemic) [Example 112]"
  log10 of IC50: 2.05
- compound: "CCC(=O)Cn1ncc2ncc(-c3cccc(F)c3)cc21 [Example 29]"
  log10 of IC50: 1.45
- compound: "CC(C)C(=O)Cn1ncc2ncc(-c3ccc(F)cc3)cc21 [Example 45]"
  log10 of IC50: 1.56
- compound: "O=C(Cn1ncc2ncc(-c3ccc(F)c(C(F)(F)F)c3)cc21)C1CC1 [Example 74]"
  log10 of IC50: 1.56
- compound: "O=C(Cn1ncc2ncc(-c3ccc(Cl)s3)cc21)C1CC1 [Example 55]"
  log10 of IC50: 0.90
- compound: "CC[S+]([O-])Cn1ncc2ncc(-c3ccc(F)c(C(F)F)c3)cc21 (single isomer, unassigned) [Example 85]"
  log10 of IC50: 1.82
- compound: "CCC(=O)Cn1ncc2ncc(-c3ccc(F)c(F)c3)cc21 [Example 34]"
  log10 of IC50: 1.23
- compound: "Cc1cc(-c2cnc3cnn(CC(O)C(C)C)c3c2)ccc1F (racemic) [Example 8]"
  log10 of IC50: 2.35
- compound: "Cc1c(F)ccc(-c2cnc3cnn(CC(=O)C4CC4)c3c2)c1C [Example 78]"
  log10 of IC50: 1.93
- compound: "CN1C[C@H](Cn2ncc3ncc(-c4ccc(F)c(C(F)F)c4)cc32)OC1=O [Example 129]"
  log10 of IC50: 1.48
- compound: "O=C(Cn1ncc2ncc(-c3ccc(F)c(C(F)F)c3)cc21)c1cccs1 [Example 137]"
  log10 of IC50: 1.56
- compound: "CC(C)C(=O)Cn1ncc2ncc(-c3ccc(F)c(F)c3)cc21 [Example 49]"
  log10 of IC50: 1.40
- compound: "O=C(Cn1ncc2ncc(-c3ccc(F)c(C(F)F)c3)cc21)c1cnccn1 [Example 142]"
  log10 of IC50: 1.87

====

targetUnderTest: human GluN1/GluN2B NMDA receptors (Homo sapiens, UniProt Q05586+Q13224)
assayText: Calcium flux (FLIPR) assay on cloned human NR1/GluN2B ion channels expressed in mammalian cells, standard assay
experimentalConditions: glutamate ~EC40 and 10 μM glycine, stable cell line with Tet-On induced expression
pIC50: −log10 of the molar value.
Quick list: pIC50 per entry.

- compound: "CCS(=O)(=O)Cn1ncc2ncc(-c3ccc(F)c(OC(F)F)c3)cc21"
  targetUnderTest: "human GluN1/GluN2B NMDA receptors (Homo sapiens, UniProt Q05586+Q13224)"
  pIC50: 5.74
- compound: "O=C(Cn1ncc2ncc(-c3ccc(F)c(F)c3F)cc21)C1CC1"
  targetUnderTest: "human GluN1/GluN2B NMDA receptors (Homo sapiens, UniProt Q05586+Q13224)"
  pIC50: 7.52
- compound: "CN1C(=O)OCC1Cn1ncc2ncc(-c3ccc(F)c(C(F)F)c3)cc21 (racemic)"
  targetUnderTest: "human GluN1/GluN2B NMDA receptors (Homo sapiens, UniProt Q05586+Q13224)"
  pIC50: 5.72
- compound: "ON=C(Cn1ncc2ncc(-c3ccc(F)c(C(F)F)c3)cc21)C1CC1 (mixture of isomers)"
  targetUnderTest: "human GluN1/GluN2B NMDA receptors (Homo sapiens, UniProt Q05586+Q13224)"
  pIC50: 7.19
- compound: "CCC(=O)Cn1nc(C)c2ncc(-c3ccc(F)c(C(F)F)c3)cc21"
  targetUnderTest: "human GluN1/GluN2B NMDA receptors (Homo sapiens, UniProt Q05586+Q13224)"
  pIC50: 7.57
- compound: "CCC(=O)Cn1ncc2ncc(-c3ccc(F)c(C(C)(F)F)c3)cc21"
  targetUnderTest: "human GluN1/GluN2B NMDA receptors (Homo sapiens, UniProt Q05586+Q13224)"
  pIC50: 7.39
- compound: "CCC(=O)Cn1ncc2ncc(-c3cc(F)c(F)c(F)c3)cc21"
  targetUnderTest: "human GluN1/GluN2B NMDA receptors (Homo sapiens, UniProt Q05586+Q13224)"
  pIC50: 7.57
- compound: "CC(C)C(O)Cn1ncc2ncc(-c3cccc(C(F)(F)F)c3)cc21 (racemic)"
  targetUnderTest: "human GluN1/GluN2B NMDA receptors (Homo sapiens, UniProt Q05586+Q13224)"
  pIC50: 6.25
